We begin with a simple list: items and their reported inhibition of growth at 30 µg/mL.
- Test system: Mycobacterium tuberculosis
- protocol-notes: Anti-tubercular activity against rifampicin, isoniazid, ethambutol and pyrazinamide-sensitive Mycobacterium tuberculosis H37Ra ATCC 25177 assessed as growth inhibition at 30 ug/ml by XRMA method relative to control
- Assay type: functional
- condition: read-out: GI
Respond with the bare value in %.

compound | units-text | inhibition of growth at 30 µg/mL
COC(=O)CC[C@@H](C)[C@H]1CC[C@H]2[C@H]3[C@H]([C@H](NC(=O)[C@H]4CCCN4)C(=O)[C@]12C)[C@@]1(C)CC[C@@H](OC(C)=O)C[C@H]1C[C@H]3OC(C)=O | % | 71
COC(=O)CC[C@@H](C)[C@H]1CC[C@H]2[C@H]3[C@H]([C@H](NC(=O)C4CN4)C(=O)[C@]12C)[C@@]1(C)CC[C@@H](OC(C)=O)C[C@H]1C[C@H]3OC(C)=O (stereo partly specified) | % | 14
COC(=O)CC[C@@H](C)[C@H]1CC[C@H]2[C@H]3[C@H]([C@H](n4cc(-c5ccc(F)cc5)nn4)C(=O)[C@]12C)[C@@]1(C)CC[C@@H](OC(C)=O)C[C@H]1C[C@H]3OC(C)=O | % | 79
C[C@H](CCC(=O)O)[C@H]1CC[C@H]2[C@@H]3[C@H](O)C[C@@H]4C[C@H](O)CC[C@]4(C)[C@H]3C[C@H](O)[C@]12C | % | 53
COC(=O)CC[C@@H](C)[C@H]1CC[C@H]2[C@H]3[C@H]([C@H](n4cc(-c5ccccc5)nn4)C(=O)[C@]12C)[C@@]1(C)CC[C@@H](OC(C)=O)C[C@H]1C[C@H]3OC(C)=O | % | 74

Note: attention shifts to another entry.
Data request: Give the measured inhibition of growth at 30 µg/mL of COC(=O)CC[C@@H](C)[C@H]1CC[C@H]2[C@H]3[C@H]([C@H](NC(=O)C(CO)NC(=O)OC(C)(C)C)C(=O)[C@]12C)[C@@]1(C)CC[C@@H](OC(C)=O)C[C@H]1C[C@H]3OC(C)=O (stereo partly specified) .
Data returned: 91

====

- Test system: A549
- protocol-notes: Cytotoxicity against human A549 cells after 48 hrs by MTT assay
- Type: cell-based
- condition: a549, 48 h
assay-readout: GI90

molecule | GI90
COC(=O)CC[C@@H](C)[C@H]1CC[C@H]2[C@H]3[C@H]([C@H](n4nnc5ccccc54)C(=O)[C@]12C)[C@@]1(C)CC[C@@H](OC(C)=O)C[C@H]1C[C@H]3OC(C)=O | > 100 µg/mL
CCCCCCc1cn([C@@H]2C(=O)[C@]3(C)[C@@H]([C@H](C)CCC(=O)OC)CC[C@H]3[C@H]3[C@H]2[C@@]2(C)CC[C@@H](OC(C)=O)C[C@H]2C[C@H]3OC(C)=O)nn1 | > 100 µg/mL
COC(=O)CC[C@@H](C)[C@H]1CC[C@H]2[C@H]3[C@H]([C@H](NC(=O)[C@H]4CCCN4C(=O)OC(C)(C)C)C(=O)[C@]12C)[C@@]1(C)CC[C@@H](OC(C)=O)C[C@H]1C[C@H]3OC(C)=O | > 100 µg/mL

Data request: Please give the measured GI90 for this molecule: CC(=O)O[C@H]1C(=O)[C@@]2(C)[C@H]([C@H](OC(=O)c3ccccc3)[C@]3(O)C[C@H](OC(=O)[C@H](O)[C@@H](NC(=O)c4ccccc4)c4ccccc4)C(C)=C1C3(C)C)[C@]1(OC(C)=O)CO[C@@H]1C[C@@H]2O
Data returned: 0.0706 µg/mL

Data request: Another molecule to look at: COC(=O)CC[C@@H](C)[C@H]1CC[C@H]2[C@H]3[C@H]([C@H](NC(=O)C(CO)NC(=O)OC(C)(C)C)C(=O)[C@]12C)[C@@]1(C)CC[C@@H](OC(C)=O)C[C@H]1C[C@H]3OC(C)=O (stereo not given in full)
Data returned: > 100 µg/mL

Origin of measurements: ChEMBL document CHEMBL3616451
